molecular target: TRAF2 and NCK-interacting protein kinase (Homo sapiens, UniProt Q9UKE5); experiment: Inhibition of human full length TNIK in HEK293 cells co-transfected with full length SMAD1 incubated for 2 hrs by ELISA; format: cell-based; details: read-out: pIC50 (converted)
Sequence (Q9UKE5 whole entry): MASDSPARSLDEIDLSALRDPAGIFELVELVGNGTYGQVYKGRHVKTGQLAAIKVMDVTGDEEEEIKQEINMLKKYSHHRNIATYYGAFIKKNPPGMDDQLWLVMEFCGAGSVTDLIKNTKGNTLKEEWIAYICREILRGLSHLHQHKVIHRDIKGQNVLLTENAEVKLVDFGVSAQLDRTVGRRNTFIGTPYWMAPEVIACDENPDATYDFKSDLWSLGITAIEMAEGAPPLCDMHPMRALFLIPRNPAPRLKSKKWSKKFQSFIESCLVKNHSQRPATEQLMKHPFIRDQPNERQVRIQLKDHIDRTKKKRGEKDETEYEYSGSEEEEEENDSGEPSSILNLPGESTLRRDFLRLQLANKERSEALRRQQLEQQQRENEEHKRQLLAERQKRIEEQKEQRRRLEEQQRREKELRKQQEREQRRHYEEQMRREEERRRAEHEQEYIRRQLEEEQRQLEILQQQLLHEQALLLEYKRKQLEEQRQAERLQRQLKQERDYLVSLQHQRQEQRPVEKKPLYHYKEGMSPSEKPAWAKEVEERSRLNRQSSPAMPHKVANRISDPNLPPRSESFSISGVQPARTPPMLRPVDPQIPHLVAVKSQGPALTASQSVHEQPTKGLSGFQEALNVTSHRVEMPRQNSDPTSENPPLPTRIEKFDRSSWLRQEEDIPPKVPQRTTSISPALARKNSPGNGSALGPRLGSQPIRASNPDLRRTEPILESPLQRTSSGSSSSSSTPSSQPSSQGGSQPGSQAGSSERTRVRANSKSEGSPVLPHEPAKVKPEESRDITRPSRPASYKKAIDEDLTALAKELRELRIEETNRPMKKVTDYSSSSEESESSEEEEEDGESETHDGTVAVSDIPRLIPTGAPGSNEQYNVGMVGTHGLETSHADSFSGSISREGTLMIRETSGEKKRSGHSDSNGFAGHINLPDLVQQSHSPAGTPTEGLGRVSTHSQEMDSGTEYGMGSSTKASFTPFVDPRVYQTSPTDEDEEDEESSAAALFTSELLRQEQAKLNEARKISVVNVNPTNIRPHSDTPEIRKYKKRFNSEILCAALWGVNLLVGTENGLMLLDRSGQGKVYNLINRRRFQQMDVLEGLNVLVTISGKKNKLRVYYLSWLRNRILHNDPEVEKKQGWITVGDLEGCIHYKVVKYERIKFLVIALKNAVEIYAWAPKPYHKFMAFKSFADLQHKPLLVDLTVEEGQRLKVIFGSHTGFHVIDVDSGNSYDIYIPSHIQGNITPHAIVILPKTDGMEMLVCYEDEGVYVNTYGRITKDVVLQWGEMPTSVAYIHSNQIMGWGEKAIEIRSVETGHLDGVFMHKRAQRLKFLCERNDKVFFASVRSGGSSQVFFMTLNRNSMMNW
Consider the following compounds and their measured IC50 readings.

Recorded results for 3 compounds are shown here.
CC(C)NC(=O)c1ccc(-c2cnc(N)c(-c3ccc(C#N)cc3)c2)cc1 1.26 µM
CN(C)c1ncc(-c2ccc(O)cc2)cc1-c1ccc(S(C)(=O)=O)cc1 > 31.6 µM
Fc1cc(-c2ccc3ccncc3n2)ccn1 > 31.6 µM

--- query ---
Recorded IC50 (compound CC(C)NC(=O)c1ccc(-c2cnc(N(C)C)c(-c3ccc(C#N)cc3)c2)cc1 ): > 31.6 µM

====

molecular target: Misshapen-like kinase 1 (Homo sapiens); test: Inhibition of human 6His-TEV-Avi-MINK1(1 to 328)-GNS expressed in baculovirus-infected sf21 cells using LRRKtide as substrate preincubated for 30 mins followed by substrate addition and measured after 75 to 90 mins by ADP-Glo Reagent based method; conditions: read-out: pIC50 (converted)
Sequence (Q8N4C8 whole entry): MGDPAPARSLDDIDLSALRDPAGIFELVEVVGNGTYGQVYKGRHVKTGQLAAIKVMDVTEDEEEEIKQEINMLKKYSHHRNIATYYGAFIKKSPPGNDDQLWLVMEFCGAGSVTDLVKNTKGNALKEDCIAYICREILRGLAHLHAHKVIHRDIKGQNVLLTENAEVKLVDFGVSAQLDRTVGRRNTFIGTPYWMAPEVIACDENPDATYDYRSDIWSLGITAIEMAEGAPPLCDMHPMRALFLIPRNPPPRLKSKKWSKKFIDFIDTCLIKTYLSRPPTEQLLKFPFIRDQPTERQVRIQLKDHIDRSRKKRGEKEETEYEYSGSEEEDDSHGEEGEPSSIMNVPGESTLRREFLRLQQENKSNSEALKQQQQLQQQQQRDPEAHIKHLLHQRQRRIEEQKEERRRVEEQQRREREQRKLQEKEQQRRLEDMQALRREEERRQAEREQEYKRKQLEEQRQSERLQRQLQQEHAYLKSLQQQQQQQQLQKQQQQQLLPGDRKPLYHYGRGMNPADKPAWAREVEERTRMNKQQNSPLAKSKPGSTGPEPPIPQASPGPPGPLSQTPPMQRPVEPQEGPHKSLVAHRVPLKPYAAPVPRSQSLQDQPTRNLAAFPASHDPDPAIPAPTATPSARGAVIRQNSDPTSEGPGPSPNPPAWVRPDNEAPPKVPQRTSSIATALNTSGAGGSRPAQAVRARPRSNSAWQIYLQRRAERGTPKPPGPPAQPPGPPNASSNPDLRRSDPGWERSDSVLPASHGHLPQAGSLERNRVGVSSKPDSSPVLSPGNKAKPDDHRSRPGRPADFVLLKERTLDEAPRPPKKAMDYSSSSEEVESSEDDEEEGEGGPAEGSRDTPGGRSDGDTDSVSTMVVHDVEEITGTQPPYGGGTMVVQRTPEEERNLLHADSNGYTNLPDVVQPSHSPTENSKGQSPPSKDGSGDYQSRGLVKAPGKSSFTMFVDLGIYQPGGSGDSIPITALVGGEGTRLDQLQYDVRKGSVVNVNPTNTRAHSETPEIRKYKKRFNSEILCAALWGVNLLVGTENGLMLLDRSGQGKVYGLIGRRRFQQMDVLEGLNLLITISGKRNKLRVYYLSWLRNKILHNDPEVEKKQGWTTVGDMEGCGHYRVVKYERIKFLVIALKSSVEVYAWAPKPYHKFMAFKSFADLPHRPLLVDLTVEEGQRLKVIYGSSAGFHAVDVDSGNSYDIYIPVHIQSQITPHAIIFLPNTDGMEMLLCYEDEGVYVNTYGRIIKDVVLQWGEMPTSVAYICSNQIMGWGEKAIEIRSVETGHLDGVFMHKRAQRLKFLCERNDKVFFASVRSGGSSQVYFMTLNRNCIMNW
Readout: IC50 (µM)

Recorded results for 2 molecules are shown here.
Nc1ncnc2ccc(-c3ccnc(F)c3)nc12 0.2
CS(=O)(=O)c1ccc(-c2cc(-c3ccc(O)cc3)cnc2N)cc1 0.0398

1. Nc1ncc(Br)c2ccc(-c3ccnc(F)c3)nc12
2. Fc1cc(-c2ccc3ccncc3n2)ccn1
3. CC(C)(O)c1cnc(N)c2nc(-c3ccnc(F)c3)ccc12
4. CC(C)NC(=O)c1ccc(-c2cnc(N)c(-c3ccc(C#N)cc3)c2)cc1
Rank order required: IC50, descending. Rank the items, then write their labels in that order.
2, 3, 4, 1

====

target: Mitogen-activated protein kinase kinase kinase kinase 4 (Homo sapiens, UniProt O95819); test: Inhibition of human full length MAP4K4(1-1239)-G5-Avi-6His-Flag expressed in baculovirus-infected sf21 cells using His6-SMAD1 as substrate preincubated for 30 mins followed by substrate addition and measured after 120 mins by ADP-Glo Reagent based method
Sequence (O95819 whole entry): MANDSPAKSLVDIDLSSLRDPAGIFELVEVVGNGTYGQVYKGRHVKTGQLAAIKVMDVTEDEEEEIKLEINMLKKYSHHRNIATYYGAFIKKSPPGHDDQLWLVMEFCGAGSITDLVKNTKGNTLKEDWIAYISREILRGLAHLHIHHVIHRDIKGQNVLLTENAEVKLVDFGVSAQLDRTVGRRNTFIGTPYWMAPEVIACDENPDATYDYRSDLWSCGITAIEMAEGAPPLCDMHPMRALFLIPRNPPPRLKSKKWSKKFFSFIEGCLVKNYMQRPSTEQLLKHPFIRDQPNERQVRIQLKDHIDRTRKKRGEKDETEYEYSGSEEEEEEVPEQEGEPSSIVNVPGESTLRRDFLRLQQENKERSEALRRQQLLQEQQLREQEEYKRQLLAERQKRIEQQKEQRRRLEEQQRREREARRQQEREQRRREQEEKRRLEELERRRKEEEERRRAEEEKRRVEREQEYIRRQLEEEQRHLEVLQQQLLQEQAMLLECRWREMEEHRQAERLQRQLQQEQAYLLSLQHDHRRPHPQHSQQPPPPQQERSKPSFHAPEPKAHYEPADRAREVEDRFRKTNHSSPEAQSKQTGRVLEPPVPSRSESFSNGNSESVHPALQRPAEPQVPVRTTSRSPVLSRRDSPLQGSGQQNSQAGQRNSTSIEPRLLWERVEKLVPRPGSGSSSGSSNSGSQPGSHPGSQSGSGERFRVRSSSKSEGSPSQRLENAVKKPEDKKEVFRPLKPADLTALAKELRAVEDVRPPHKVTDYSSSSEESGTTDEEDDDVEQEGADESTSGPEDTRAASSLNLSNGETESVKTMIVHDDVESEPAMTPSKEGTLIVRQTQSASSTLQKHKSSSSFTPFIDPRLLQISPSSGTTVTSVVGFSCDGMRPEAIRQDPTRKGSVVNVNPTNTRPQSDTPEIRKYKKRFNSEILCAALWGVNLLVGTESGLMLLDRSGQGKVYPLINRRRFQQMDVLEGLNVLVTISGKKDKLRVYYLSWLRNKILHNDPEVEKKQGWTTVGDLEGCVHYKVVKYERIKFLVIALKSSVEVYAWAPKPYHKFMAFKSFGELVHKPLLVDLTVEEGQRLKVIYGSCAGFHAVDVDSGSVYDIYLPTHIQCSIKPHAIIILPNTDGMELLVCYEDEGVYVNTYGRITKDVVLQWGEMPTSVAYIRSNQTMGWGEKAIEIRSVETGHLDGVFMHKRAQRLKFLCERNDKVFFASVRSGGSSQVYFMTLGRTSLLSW
Readout: IC50 (µM)

P. Fc1cc(-c2ccc3ccncc3n2)ccn1
Q. CC(C)NC(=O)c1ccc(-c2cnc(N)c(-c3ccc(C#N)cc3)c2)cc1
Between the entries labelled P and Q , which has a larger IC50 value on record? // caller expects the label of the chosen entry
P
(P: 3.98 µM, Q: 0.0251 µM)

====

molecular target: Mitogen-activated protein kinase kinase kinase kinase 4 (Homo sapiens, UniProt O95819); assay: Inhibition of human full length MAP4K4(1-1239)-G5-Avi-6His-Flag expressed in baculovirus-infected sf21 cells using His6-SMAD1 as substrate preincubated for 30 mins followed by substrate addition and measured after 120 mins by ADP-Glo Reagent based method
pIC50: −log10 of the molar value.
Readout: pIC50

Nc1ncc(Br)c2ccc(-c3ccnc(F)c3)nc12 7.70

P. CC(C)NC(=O)c1ccc(-c2cnc(N(C)C)c(-c3ccc(C#N)cc3)c2)cc1
Q. CN(C)c1ncc(-c2ccc(O)cc2)cc1-c1ccc(S(C)(=O)=O)cc1
Between the entries labelled P and Q , which has a larger pIC50 value on record? // caller expects the label of the chosen entry
Q
